# ASSAYED TARGET: HLA-A*02:17
# PROCEDURE SUMMARY: IEDB peptide-MHC binding, purified MHC/competitive/radioactivity; filed as Kd, often an IC50 or EC50 that approximates it; bounds were set here for any values at or beyond the usual limits of such assays
# CONDITIONS USED: source organism: Dengue virus 3 China/80-2/1980
In this section, each of the sequences is paired with its reported Kd.
API: value field is a number in nM; no unit string.

Below are worked cases with known answers.
Query (sequence): FLAIPPTAGV ; field requested: Kd 11.9

Which Kd is listed for GIMTIDLDPV ? 2080

What value of Kd has been recorded for this entry: LMSGKDVFYL 8.67

Others:
Data request, read-out Kd, for YMGEDGCWYG 6040
